test: Acute toxicity, intravenous, mice; assay type: in vivo; settings: mouse, in vivo; intravenous, within 24 hours; read-out: Evaluated LD50-range
ASSAY METRIC: LD50 at 24 h

Some solved cases for reference:
1) CN(CCCCc1ccccc1)[C@H]1CO[C@H]2[C@@H]1OC[C@@H]2O[N+](=O)[O-] [Example 22] | ≥ 50 mg/kg
2) COc1ccc(CCCCN[C@H]2CO[C@H]3[C@@H]2OC[C@@H]3O[N+](=O)[O-])cc1 [Example 32] | 50 to 100 mg/kg
3) CN(CCCc1ccccc1)[C@H]1CO[C@H]2[C@@H]1OC[C@@H]2O[N+](=O)[O-] [Example 21] | 50 to 100 mg/kg
4) CC(=O)N[C@H]1CO[C@H]2[C@@H]1OC[C@@H]2O[N+](=O)[O-] [Example 6] | > 200 mg/kg
5) CN(C)[C@H]1CO[C@H]2[C@@H]1OC[C@@H]2O[N+](=O)[O-] [12 b] | > 200 mg/kg
6) CCN(CC)[C@H]1CO[C@H]2[C@@H]1OC[C@@H]2O[N+](=O)[O-] [13 b] | 100 to 200 mg/kg

Dear colleague, could you send me LD50 at 24 h for each of the items below? Thanks.
1. CN1CCN([C@H]2CO[C@H]3[C@@H]2OC[C@@H]3O[N+](=O)[O-])CC1 [17 b]
2. Cc1cccc(OCC(O)CN[C@H]2CO[C@H]3[C@@H]2OC[C@@H]3O[N+](=O)[O-])c1 (stereo partly shown) [Example 51]

["> 200 mg/kg", "50 to 100 mg/kg"]

* * *

I'd be grateful if you could share measured dp/dt WD for these entries.
tested on: mongrel cats; assay: Inotropic and heart-circulatory effectiveness on narcotised cats, intravenous; assay type: in vivo, cat; details: 1.00 mg/kg i.v.; 6 animals
Numbers only, in min.

Guide cases for dp/dt WD, answers given:
1. CCOc1ccccc1OCC(O)CN[C@H]1CO[C@H]2[C@@H]1OC[C@@H]2O[N+](=O)[O-] (stereo partly drawn) [Example 47] | 10.9
2. O=[N+]([O-])O[C@H]1CO[C@H]2[C@@H]1OC[C@@H]2NCC(O)COc1cccc2ccccc12 (stereo partly drawn) [Example 54] | 15.2

Let's switch to this molecule now.
Could you share what dp/dt WD was measured for O=[N+]([O-])O[C@H]1CO[C@H]2[C@@H]1OC[C@@H]2NCCCOc1ccccc1 [Example 36] , tested on mongrel cats?
19.0

* * *

Exercise: for every item that follows, state its recorded dp/dt WD.
system: mongrel cats; test: Inotropic and heart-circulatory effectiveness on narcotised cats, intravenous; format: in vivo, cat; conditions: 0.50 mg/kg i.v.; 6 animals

1. O=[N+]([O-])O[C@H]1CO[C@H]2[C@@H]1OC[C@H]2NCC(O)COc1cccc2ccccc12 (stereo partly shown) | 5.2 min
2. CN(CCCOc1ccccc1)[C@H]1CO[C@H]2[C@@H]1OC[C@@H]2O[N+](=O)[O-] | 3,7 min
3. O=[N+]([O-])O[C@H]1CO[C@H]2[C@@H]1OC[C@@H]2NCCCCCc1ccccc1 | 13.7 min
4. CCOc1ccccc1OCC(O)CN[C@H]1CO[C@H]2[C@@H]1OC[C@@H]2O[N+](=O)[O-] (stereo partly shown) | 9.5 min
5. O=[N+]([O-])O[C@H]1CO[C@H]2[C@@H]1OC[C@@H]2NCCCOc1ccccc1 | 7.9 min

// each listed compound needs a value for dp/dt WD
1. C=CCc1ccccc1OCC(O)CN[C@H]1CO[C@H]2[C@@H]1OC[C@@H]2O[N+](=O)[O-] (stereo partly shown)
2. O=[N+]([O-])O[C@H]1CO[C@H]2[C@@H]1OC[C@@H]2NCCCc1ccccc1

["14.0 min", "10.7 min"]
